- assay procedure: inhibition of Brca1/Bard1 split-luciferase complementation, confirmation, counter-screen for Mdm2/MdmX interaction inhibitor project, luminescence, single concentration (AID 504668)
- details: Brca1/Bard1 bimolecular luciferase complementation counterscreen, at 8 µM, stronger effect = higher value
readout name: inhibition (%)

Clc1cccc(Cl)c1OCCOCCNCc1ccccc1
33
O=C(N/N=C/c1c(O)ccc2ccccc12)c1cccnc1
29.9
N#Cc1c2ccc(O)cc2n2ccccc12
35.2
O=C(Nc1ccc(-c2nc3ccccc3[nH]2)cc1)c1ccc2c(c1)OCO2
28.7
Cc1ccc(O)c(CNCCNCc2cc(C)ccc2O)c1
32.6
C=CCc1cccc(/C=N/NC(=O)CNc2ccccc2)c1O
32.9
CNC[C@H](CC1CCCCC1)NC[C@H](NCCC1CCCC1)[C@H](C)O
30.2
CCOc1cc(/C=C2/NC(=O)N(CC(=O)Nc3cccc(C)c3)C2=O)ccc1OC
32.2
COc1cccc(-c2sc3ccc(OC)cc3c2-c2ccc(OCCN3CCCCC3)cc2)c1
32.7
Cc1ccc(O)c(/C=N/NC(=O)Cc2ccc(Cl)cc2)c1
33.6
CC1CCc2c(sc3nc(C(C)(C)C)nc(N4CCN(C(=O)CCl)CC4)c23)C1 (centres undefined)
34.8
O=C(CCS(=O)(=O)c1ccc(Cl)cc1)Nc1nc(-c2ccncc2)cs1
25.6
Cc1ccc2oc(/N=C(\N)NC(=O)C(C)(C)C)nc2c1
31.8
CC(NC(=O)/C(C#N)=C/c1ccc(Cl)c([N+](=O)[O-])c1)c1ccccc1 (centres undefined)
29
CC(=O)/C(C#N)=C1\NC(=O)C(Cc2cc(Cl)ccc2Cl)S1 (centres undefined)
31.2
CC(C)c1ccc(-c2nc3ccccc3s2)cc1
35.8
N#CC1(NC(=O)Cn2ncc(Cl)c(Cl)c2=O)CCCCC1
29.6
CCCCCCCCCCC[N+](C)(C)CC/C=C1/c2ccccc2Sc2ccc(Cl)cc21
28.6
Cc1[nH]nc2nc(SCC(=O)NCCC3=CCCCC3)n(-c3ccc(Br)cc3)c(=N)c12
31.1
N#CC(C#N)=C(Nc1ccc(F)cc1)SCc1cccc(F)c1
23.3
Cn1c(=O)c(C#N)c(-c2ccc(F)cc2)c2cc(C(=O)c3cc(Cl)cc(Cl)c3O)cnc21
29.6
S=C(Nc1ccc(Cl)c(Cl)c1)NC1CCN(Cc2ccccc2)CC1
28.5
CC(=O)Oc1c(-c2ccc(Br)o2)oc2ccccc2c1=O
29.9
O=C(c1ccc(Br)cc1)C(CN1CCOCC1)c1ccccc1 (centres undefined)
24.6
Cc1cc(NC(=O)/C=C/C(=O)N(c2ccccc2C)C(C(=O)NC2CCCC2)c2ccc(F)cc2)no1 (centres undefined)
28.7
COc1cccc(/C=N/NC(=O)c2c(C)nc3ccc(Br)cn23)c1O
32.3
Cn1ncc2c(O/N=C(\N)c3ccc(C(F)(F)F)cc3)ncnc21
24.2
Cc1cc(C=C2C(=O)c3ccccc3C2=O)c(C)n1-c1ccccc1
34.3
C=CCn1c(C)cc(C2=NNC(=NCC)SC2)c1C
24.4
O=C(Nc1ccc(N2CCCCC2)cc1)c1ccccn1
27.9
COc1ccc(C2=Nn3c(nnc3-c3ccccc3F)SC2)cc1OC1CCOC1 (centres undefined)
33.4
Cc1cccc(/C=N/NC(=O)c2c(-c3ccccc3)noc2C)c1O
35.6
C/C(=N\NC(=O)COc1cccc(C)c1)c1ccc2ccccc2c1O
33.6
CCN1/C(=C\c2ccc3ccccc3[n+]2CC)Sc2cc(C)ccc21
25
CCCC(=O)NC(c1cccs1)c1cc(Cl)c2cccnc2c1O (centres undefined)
24.8
O=C1[C@H]2[C@@H](c3ccc(F)cc3)N3C(=O)N(c4ccc(Br)cc4)C(=O)[C@@]3(Cc3ccc(Cl)cc3)[C@H]2C(=O)N1C1CCCCC1
27.8
Clc1cccc(Nc2ncnc3ccc(Br)cc23)c1
35.6
CN(C(=O)c1ccc(S(=O)(=O)c2cccc(Cl)c2)c([N+](=O)[O-])c1)C1CCCCC1
28.9
O=C(CCCN1C(=O)/C(=C\c2ccccc2)SC1=S)Nc1ccc(O)cc1
33.2
OCCNc1nc(Nc2ccc(Cl)c(Cl)c2)nc2ccccc12
24.3
CCOc1ccc2nc(NC3=NC(c4ccc(OC)cc4)CC(=O)N3)nc(C)c2c1 (centres undefined)
30.6
O=C(/C=C\c1cn(-c2ccccc2)nc1-c1ccccc1)Nc1nccs1
28.9
CC1=[N+](C)c2ccc3ccccc3c2C1(C)C
28.2
O=[N+]([O-])c1ccccc1C1Nc2cccc3cccc(c23)N1
26.9
